- Tested On: WDR5 (Homo sapiens (Human))
- Protocol: FP based competitive binding assay to WDR5
- Particulars: read-out: Binding Affinity to WDR5 (IC50 ± SD); Table 5 peptidomimetics
Where a SMILES comes first, the peptide text is derived from it. The star is where a group is joined. Pentanoyl = CCCCC(=O)*; NHPh = c1ccc(N*)cc1
Quantity: IC50

[
  {
    "Compound": "CCCCC(=O)N[C@@H](C)C(=O)N[C@@H](CCCNC(=N)N)C(=O)N[C@@H](C)C(N)=O [Compound 9D] (Pentanoyl-Ala-Arg-Ala-NH2)",
    "Quantity": "IC50",
    "Assay Value": "> 10000 nM"
  },
  {
    "Compound": "CC(=O)N[C@@H](C)C(=O)N[C@@H](CCCNC(=N)N)C(=O)N[C@@H](C)C(=O)Nc1ccccc1 [Compound 7D] (Ac-Ala-Arg-Ala-NHPh)",
    "Quantity": "IC50",
    "Assay Value": "< 1000 nM"
  }
]

Please look at the following compound next.
Return IC50 for the following compound: CC(=O)N[C@@H](C)C(=O)N[C@@H](CCCNC(=N)N)C(=O)N[C@@H](C)C(=O)NC1CCCCC1 [Compound 7C] < 1000 nM

Entry source: patent US9233086B2
